- TARGET SYSTEM: human neutrophil elastase (HNE) (Homo sapiens, UniProt P08246)
- Sequence (P08246 30-247 limits assumed): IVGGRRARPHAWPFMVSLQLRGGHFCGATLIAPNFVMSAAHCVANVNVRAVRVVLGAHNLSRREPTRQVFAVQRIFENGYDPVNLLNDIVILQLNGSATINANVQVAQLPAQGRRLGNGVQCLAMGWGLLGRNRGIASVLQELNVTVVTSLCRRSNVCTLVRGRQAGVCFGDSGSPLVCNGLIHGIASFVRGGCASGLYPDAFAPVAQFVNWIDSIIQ
- ASSAY PROTOCOL: HNE enzyme activity assay
- CONDITIONS: human leukocyte elastase, substrate MeOSuc-Ala-Ala-Pro-Val-AMC 100 μM, 25° C. for 30 minutes, fluorescence; read-out: HNE inhibition
- Experimental: Compounds of the present invention were tested for potency in a human neutrophil elastase (HNE) enzyme activity assay. Assays were performed in 96-well plates in a total assay volume of 100 μl. […] Fluorescence was measured using a Molecular Devices fluorescence plate reader using 380 nm excitation and 460 nm emission wavelengths. A dose response to each compound was performed and the effect of compound in each experiment was expressed as a percentage inhibition of the control enzyme fluorescence. […]
Counter-ions that a name gives are not always drawn.
ENDPOINT LABEL: IC50

# example entries with known answers
Cc1c(-c2nc(N)nn2-c2ccc(C#N)cc2)cn2nc(N)nc2c1-c1cccc(C(F)(F)F)c1 [Example 61]
< 20 nM
Cc1c(-c2ccnn2-c2ccc(C#N)cc2)cn2nc(NC(=O)NC3CCNCC3)nc2c1-c1cccc(C(F)(F)F)c1 [Example 50]
< 20 nM
Cc1c(-c2ccnn2-c2ccc(C#N)cc2)cn2nc(NC(=O)C[N+]3(C)CCN(C)CC3)nc2c1-c1cccc(C(F)(F)F)c1 [Example 25]
20 to 100 nM
Cc1c(-c2ccnn2-c2ccc(C#N)cc2)cn2nc(NC(=O)NCCC[N+](C)(C)C)nc2c1-c1cccc(C(F)(F)F)c1 [Example 38, formate]
< 20 nM

Problem: // lookup IC50 for COCCOC(=O)Nc1nc2c(-c3cccc(C(F)(F)F)c3)c(C)c(-c3ccnn3-c3ccc(C#N)cc3)cn2n1 [Example 36]
Result: < 20 nM

Problem: Name the reported IC50 value associated with the molecule Cc1c(-c2ccnn2-c2ccc(C#N)cc2)cn2ccnc2c1-c1cccc(C(F)(F)F)c1 [Example 6]
Result: 20 to 100 nM

Problem: # query: IC50 of entry Cc1c(-c2ccnn2-c2ccc(C#N)cc2)cn2nc(NCCO)nc2c1-c1cccc(C(F)(F)F)c1 [Example 48]
Result: < 20 nM

====

- TARGET SYSTEM: human neutrophil elastase (HNE) (Homo sapiens)
- ASSAY PROTOCOL: HNE enzyme activity assay
- CONDITIONS: human leukocyte elastase, substrate MeOSuc-Ala-Ala-Pro-Val-AMC 100 μM, 25° C. for 30 minutes, fluorescence; read-out: HNE inhibition
- Protocol: Compounds of the present invention were tested for potency in a human neutrophil elastase (HNE) enzyme activity assay. Assays were performed in 96-well plates in a total assay volume of 100 μl. […] Fluorescence was measured using a Molecular Devices fluorescence plate reader using 380 nm excitation and 460 nm emission wavelengths. A dose response to each compound was performed and the effect of compound in each experiment was expressed as a percentage inhibition of the control enzyme fluorescence. […]
ENDPOINT LABEL: IC50

Cc1c(-c2ccnn2-c2ccc(C#N)cc2)cn2nc(NC(=O)CN3CCOCC3)nc2c1-c1cccc(C(F)(F)F)c1
< 20 nM

Problem: Look up IC50 with human neutrophil elastase (HNE) (Homo sapiens) for this molecule: "CC(=O)Nc1nc2c(-c3cccc(OC(F)(F)F)c3)c(C)c(-c3ccnn3-c3ccc(C#N)cc3)cn2n1"
Result: 20 to 100 nM

Problem: Any idea what IC50 came out for "Cc1c(-c2ccnn2-c2ccc(C#N)cc2)cn2nc(NCC[N+](C)(C)C)nc2c1-c1cccc(C(F)(F)F)c1" on human neutrophil elastase (HNE) (Homo sapiens)?
Result: < 20 nM

Problem: So what IC50 did "CC(=O)Nc1nc2c(-c3cccc(C(F)(F)F)c3)c(C)c(-c3c(C)cnn3-c3ccc(C#N)cc3)cn2n1" get with human neutrophil elastase (HNE) (Homo sapiens)?
Result: < 20 nM

Problem: Observed IC50 on human neutrophil elastase (HNE) (Homo sapiens) for "CNCCCC(=O)Nc1nc2c(-c3cccc(C(F)(F)F)c3)c(C)c(-c3ccnn3-c3ccc(C#N)cc3)cn2n1" , please.
Result: < 20 nM

Problem: Find the measured IC50: item "Cc1c(-c2ccnn2-c2ccc(C#N)cc2)cn2nc(NS(C)(=O)=O)nc2c1-c1cccc(C(F)(F)F)c1" , target or system human neutrophil elastase (HNE) (Homo sapiens).
Result: 20 to 100 nM

Problem: # get_value(readout= IC50, system= human neutrophil elastase (HNE) (Homo sapiens)) for "Cc1c(-c2ccnn2-c2ccc(C#N)cc2)cn2nc(NC(=O)CCC[N+](C)(C)C)nc2c1-c1cccc(C(F)(F)F)c1"
Result: < 20 nM

Problem: Hi! What's the reported IC50 for "Cc1c(-c2ccnn2-c2ccc(C#N)cc2)cn2nc(NC(=O)CN3CCS(=O)(=O)CC3)nc2c1-c1cccc(C(F)(F)F)c1" on human neutrophil elastase (HNE) (Homo sapiens)?
Result: < 20 nM

Problem: Can you look up IC50 on human neutrophil elastase (HNE) (Homo sapiens) for "Cc1c(-c2ccnn2-c2ccc(C#N)cc2)cn2nc(NC(=O)CCS(C)(=O)=O)nc2c1-c1cccc(C(F)(F)F)c1" ?
Result: < 20 nM

====

- TARGET SYSTEM: human neutrophil elastase (HNE) (Homo sapiens, UniProt P08246)
- ASSAY PROTOCOL: HNE enzyme activity assay
- CONDITIONS: human leukocyte elastase, substrate MeOSuc-Ala-Ala-Pro-Val-AMC 100 μM, 25° C. for 30 minutes, fluorescence; read-out: HNE inhibition
- Protocol: Compounds of the present invention were tested for potency in a human neutrophil elastase (HNE) enzyme activity assay. Assays were performed in 96-well plates in a total assay volume of 100 μl. […] Fluorescence was measured using a Molecular Devices fluorescence plate reader using 380 nm excitation and 460 nm emission wavelengths. A dose response to each compound was performed and the effect of compound in each experiment was expressed as a percentage inhibition of the control enzyme fluorescence. […]
pIC50: −log10 of the molar value.
pIC50 values, listed per item

These recorded examples may help you get a feel for the data.
CCNC(=O)Nc1nc2c(-c3cccc(C(F)(F)F)c3)c(C)c(-c3ccnn3-c3ccc(C#N)cc3)cn2n1
> 7.70
Cc1c(-c2ccnn2-c2ccc(C#N)cc2)cn2nc(NC(=O)C[N+](C)(C)C)nc2c1-c1cccc(C(F)(F)F)c1
7.00 to 7.70
Cc1c(-c2ccnn2-c2ccc(C#N)cc2)cn2cc(NC(=O)C(F)(F)F)nc2c1-c1cccc(C(F)(F)F)c1
6.30 to 7.00
CC(=O)Nc1nc2c(-c3cccc(C(F)(F)F)c3)c(C)c(-c3ccnn3-c3ccc(C#N)cc3)cn2n1
> 7.70

Problem: Please give the measured pIC50 for this molecule: "CC(=O)Nc1nc2c(-c3cccc(C(F)(F)F)c3)c(C)c(-c3ccccc3-c3ccc(C#N)cc3)cn2n1"
Result: > 7.70

Problem: I'd like to know its pIC50. The molecule in question is "Cc1c(-c2ccnn2-c2ccc(C#N)cc2)cn2ncnc2c1-c1cccc(C(F)(F)F)c1"
Result: > 7.70

Problem: So what's the measured pIC50 for this one? "Cc1c(-c2ccnn2-c2ccc(C#N)cc2)cn2nc(Nc3ccc(S(C)(=O)=O)cc3)nc2c1-c1cccc(C(F)(F)F)c1"
Result: > 7.70

====

- TARGET SYSTEM: human neutrophil elastase (HNE) (Homo sapiens)
- ASSAY PROTOCOL: HNE enzyme activity assay
- CONDITIONS: human leukocyte elastase, substrate MeOSuc-Ala-Ala-Pro-Val-AMC 100 μM, 25° C. for 30 minutes, fluorescence; read-out: HNE inhibition
pIC50: −log10 of the molar value. Where a name gives a salt, the structure may show the parent alone.
ENDPOINT LABEL: pIC50

Previously resolved entries follow.
Cc1c(-c2ccnn2-c2ccc(C#N)cc2)cn2nc(NC(=O)OCCC[N+](C)(C)C)nc2c1-c1cccc(C(F)(F)F)c1 [Example 37, formate]
> 7.70
Cc1c(-c2ccnn2-c2ccc(C#N)cc2)cn2nc(NCC(=O)N(C)C)nc2c1-c1cccc(C(F)(F)F)c1 [Example 24]
> 7.70
Cc1c(-c2ccnn2-c2ccc(C#N)cc2)cn2nc(NC(=O)c3ccc(S(C)(=O)=O)cc3)nc2c1-c1cccc(C(F)(F)F)c1 [Example 22]
> 7.70
Cc1c(-c2ccnn2-c2ccc(C#N)cc2S(C)(=O)=O)cn2nc(N)nc2c1-c1cccc(C(F)(F)F)c1 [Example 40]
> 7.70

Turning to the following molecule.
Problem: Look up pIC50 for this molecule: Cc1c(-c2ccnn2-c2ccc(C#N)cc2)cn2c(=O)n(CCCS(C)(=O)=O)nc2c1-c1cccc(C(F)(F)F)c1 [Example 13]
Result: 6.30 to 7.00
